- System: SK-MEL-2
- test.description: Growth inhibition of human SK-MEL2 cells
- Format: functional
- recorded.conditions: read-out: Log TGI (converted)
Provide the recorded TGI for the entries that follow.
Please reply with the bare figure in µM and do not write the unit itself.

*Q* Give its TGI value. Item: CCCc1cc(=O)c2c(O)c3c(OC)cc(O)cc3cc2o1
*A* 40.7

*Q* Give its TGI value. Item: COc1cc(O)cc2cc3oc(C)cc(=O)c3c(O)c12
*A* 35.5

*Q* Give its TGI value. Item: CCCc1cc(=O)c2c(OC)c3c(OC)cc(O)c(Oc4c(O)cc(OC)c5c(OC)c6c(=O)cc(CCC)oc6cc45)c3cc2o1
*A* 25.7

###

- System: NCI-H226
- test.description: Growth inhibition of human NCI-H226 cells
- Format: functional
- recorded.conditions: read-out: Log LC50 (the source's name) (converted)
quantity.kind: CC50

*Q* Entry COc1cc(O)cc2cc3oc(C)cc(=O)c3c(OC)c12 [COMANTHERIN] , system NCI-H226: what CC50 was measured?
*A* > 100 µM

*Q* Entry COc1cc(O)cc2cc3oc(C)cc(=O)c3c(O)c12 , system NCI-H226: what CC50 was measured?
*A* > 100 µM

*Q* Entry CCCc1cc(=O)c2c(OC)c3c(OC)cc(O)c(Oc4c(O)cc(OC)c5c(OC)c6c(=O)cc(CCC)oc6cc45)c3cc2o1 , system NCI-H226: what CC50 was measured?
*A* 79.4 µM

*Q* Entry CCCc1cc(=O)c2c(OC)c3c(OC)cc(OC)cc3cc2o1 , system NCI-H226: what CC50 was measured?
*A* > 100 µM

*Q* Entry CCCc1cc(=O)c2c(O)c3c(OC)cc(O)cc3cc2o1 , system NCI-H226: what CC50 was measured?
*A* > 100 µM

###

- Test system: NCI/ADR-RES
- test.description: Growth inhibition of human NCI/ADR-RES cells
- Assay type: functional
Provide the recorded GI50 for the entries that follow.

*Q* Give its GI50 value. Item: COc1cc(O)cc2cc3oc(C)cc(=O)c3c(O)c12
*A* 22.4 µM

*Q* Give its GI50 value. Item: CCCc1cc(=O)c2c(OC)c3c(OC)cc(O)c(Oc4c(O)cc(OC)c5c(OC)c6c(=O)cc(CCC)oc6cc45)c3cc2o1
*A* 6.76 µM

*Q* Give its GI50 value. Item: COc1cc(O)cc2cc3oc(C)cc(=O)c3c(OC)c12
*A* > 100 µM

*Q* Give its GI50 value. Item: CCCc1cc(=O)c2c(O)c3c(OC)cc(O)cc3cc2o1
*A* 26.3 µM

*Q* Give its GI50 value. Item: CCCc1cc(=O)c2c(OC)c3c(OC)cc(OC)cc3cc2o1
*A* 74.1 µM

###

Provide the recorded LC50 for the entries that follow.
- Tested on: SNB-19
- test.description: Growth inhibition of human SNB19 cells
- Format: functional
Please reply with the bare figure in µM and do not write the unit itself.

*Q* Give its LC50 value. Item: CCCc1cc(=O)c2c(O)c3c(OC)cc(O)cc3cc2o1
*A* 100

*Q* Give its LC50 value. Item: CCCc1cc(=O)c2c(OC)c3c(OC)cc(O)c(Oc4c(O)cc(OC)c5c(OC)c6c(=O)cc(CCC)oc6cc45)c3cc2o1
*A* 55
